system_name: Cyclin-dependent kinase 1 (Homo sapiens, UniProt P06493)
Sequence (P06493 whole entry): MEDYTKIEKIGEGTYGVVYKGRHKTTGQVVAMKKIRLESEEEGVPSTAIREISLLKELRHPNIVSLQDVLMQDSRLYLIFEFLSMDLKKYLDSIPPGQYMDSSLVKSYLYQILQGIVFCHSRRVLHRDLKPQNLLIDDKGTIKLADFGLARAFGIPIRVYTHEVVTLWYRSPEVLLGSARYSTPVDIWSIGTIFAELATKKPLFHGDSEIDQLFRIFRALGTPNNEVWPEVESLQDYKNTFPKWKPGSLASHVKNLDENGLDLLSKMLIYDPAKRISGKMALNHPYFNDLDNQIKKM
protocol_description: IMAP-FPT (Molecular Devices Trade Mark Technology) Endpoint Assay: A 384-well microtiter IMAP-FPT (Molecular Devices Trade Mark Technology) endpoint assay was used for CDK1/cyclin B kinase activity measurements. The same assay was used for IC50 determination of small molecule inhibitors. In general, the kinase reactions were carried out in 20 uL volumes in the reaction solution, which is composed of 2 uL compound (in 20% DMSO), 8 uL CDK1/cyclin B in the 1x Reaction Buffer (Molecular Devices, Cat. No. R8139), 10 uL substrate mixture of Tamra Histone-H1 peptide (Molecular Devices, Cat. No. R7384) and ATP (Amersham Pharmacia, Cat. No. 27-2056-01) in the 1x Reaction Buffer with 1 mM DTT freshly added. The final reaction mixture contains compound (inhibitor) with the concentration varying from 0.005-10 uM, 2% DMSO, 0.25 nM CDK1/cyclin B, 100 nM Tamra Histone-H1 peptide, and 20 uM ATP.All reactions were run at room temperature in black 384-well flat-bottom Costar plates (Corning, Cat. No. 3710) for 120 min then were quenched.
experimental_endpoint: IC50

Prompt: Test system Cyclin-dependent kinase 1 (Homo sapiens, UniProt P06493); read-out IC50; what value for CN(C)C(=O)c1cc2cnc(Nc3ccc(N4CCNCC4=O)cn3)nc2n1C1CCCC1 ?
Response: > 15 µM
